Tested on: MCF7
Assay: NCI one-dose screening, breast cancer MCF7
Assay type: cell-based, human
Settings: 10 μM
Below: a set of entries, each annotated with reported Growth Percent MCF7.
Response body: numeric value in %, unit text excluded.

A selection of reference data follows.
> print(dat)
                                   compound      reported.metric  result.value
1      O=C1c2ccccc2C(=O)c2c1ccc1nsnc21 [C1]  Growth Percent MCF7        −50.74
2  O=C1c2ccccc2C(=O)c2c1cc(Sc1ccccc1)c1nsnc21 [C19]  Growth Percent MCF7         94.88
3  Cc1ccc(Sc2cc3c(c4nsnc24)C(=O)c2ccccc2C3=O)c(C)c1 [C25]  Growth Percent MCF7         79.77
4  CCOc1cccc(Sc2cc3c(c4nsnc24)C(=O)c2ccccc2C3=O)c1 [C50]  Growth Percent MCF7         78.81
5  COc1ccc(Sc2cc3c(c4nsnc24)C(=O)c2ccccc2C3=O)cc1 [C41]  Growth Percent MCF7         93.78

What measured Growth Percent MCF7 goes with O=C1c2ccccc2C(=O)c2c1cc(Cl)c1nsnc21 [C2] ?
65.36

Next up: O=C1c2ccccc2C(=O)c2c1cc(Sc1ccc(Cl)cc1)c1nsnc21 [C22]
86.11

Cool, now O=C1c2ccccc2C(=O)c2c1cc(Nc1ccc(Cl)cc1)c1nsnc21 [C60]
59.01

Try the compound O=C1c2ccccc2C(=O)c2c1cc(Sc1ccccc1Br)c1nsnc21 [C27]
−6.39

O=C1c2ccccc2C(=O)c2c1cc(Sc1ccc(F)cc1F)c1nsnc21 [C39] ?
6.58

====

Below: a set of entries, each annotated with reported Growth Percent (10 μM).
Test system: HL-60, TB
Assay: NCI one-dose screening, leukemia HL-60, TB
Format: cell-based, human
Conditions: HL-60(TB)

Here are 3 molecules together with their reported answers.
> print(dat)
                                   molecule         reported.metric  result.value
1  Cc1ccc(Nc2cc3c(c4nsnc24)C(=O)c2ccccc2C3=O)cc1 [C64]  Growth Percent (10 μM)        46.13%
2  O=C1c2ccccc2C(=O)c2c1cc(N1CCCC1)c1nsnc21 [C7]  Growth Percent (10 μM)       104.58%
3  CC(C)Sc1cc2c(c3nsnc13)C(=O)c1ccccc1C2=O [C18]  Growth Percent (10 μM)       −41.24%

We now examine a further molecule.
Give the measured Growth Percent (10 μM) of CN(C)CCNc1cc2c(c3nsnc13)C(=O)c1ccccc1C2=O [C8] .
−10.38%

====

A collection of molecules and their measured Growth Percent OVCAR-8
Test system: OVCAR-8
Assay: NCI one-dose screening, ovarian cancer OVCAR-8
Assay type: cell-based, human
Conditions: 10 μM
Quick reminder: number only, in %, skip the unit.

> print(dat)
                                   compound  subject.of.test  result.value
1  O=C1c2ccccc2C(=O)c2c1cc(N1CCOCC1)c1nsnc21          OVCAR-8         43.29
2      CCSc1cc2c(c3nsnc13)C(=O)c1ccccc1C2=O          OVCAR-8        −79.84
3       O=C1c2ccccc2C(=O)c2c1cc(Cl)c1nsnc21          OVCAR-8         −4.57
4  Cc1ccccc1Nc1cc2c(c3nsnc13)C(=O)c1ccccc1C2=O          OVCAR-8         22.87

Form: Entry = COc1cccc(Sc2cc3c(c4nsnc24)C(=O)c2ccccc2C3=O)c1 | System = OVCAR-8 | Growth Percent OVCAR-8 = ____
97.32

Do the same for O=C1c2ccccc2C(=O)c2c1cc(SCc1ccc(Cl)cc1)c1nsnc21 please
94.19

Please do the same for CSc1ccc(Sc2cc3c(c4nsnc24)C(=O)c2ccccc2C3=O)cc1 as well.
97.37

Now the same for O=C1c2ccccc2C(=O)c2c1ccc1nsnc21
−10.07

One more molecule: O=C1c2ccccc2C(=O)c2c1cc(Sc1ccccc1)c1nsnc21
82.3

Also CCOc1cccc(Sc2cc3c(c4nsnc24)C(=O)c2ccccc2C3=O)c1 , if possible.
112.41

Same thing, different molecule: O=C1c2ccccc2C(=O)c2c1cc(Sc1ccccn1)c1nsnc21
18.67

Same question for COc1ccc(Sc2cc3c(c4nsnc24)C(=O)c2ccccc2C3=O)cc1 please.
99.50

====

Parameter Growth Percent (10 μM): see the listing below.
System: SF-295
Assay: NCI one-dose screening, CNS cancer SF-295
Type: cell-based, human
Conditions: SF-295, 10 μM
Use % as the unit, but write only the number.

> print(dat)
                                   compound         reported.metric  result.value
1  O=C1c2ccccc2C(=O)c2c1cc(N1CCCC1)c1nsnc21 [C7]  Growth Percent (10 μM)         87.02
2  Cc1ccc(Nc2cc3c(c4nsnc24)C(=O)c2ccccc2C3=O)cc1 [C64]  Growth Percent (10 μM)         75.76
3  CN(C)CCNc1cc2c(c3nsnc13)C(=O)c1ccccc1C2=O [C8]  Growth Percent (10 μM)        −55.73

We next turn to a different compound, shown below.
Name the recorded Growth Percent (10 μM) for CC(C)Sc1cc2c(c3nsnc13)C(=O)c1ccccc1C2=O [C18] .
−16.57

====

Tested on: T-47D
Experiment: NCI one-dose screening, breast cancer T-47D
Assay type: cell-based, human
Details: T-47D
# Growth Percent (10 μM) per entry
Field format: number, assumed %, no unit text.

Param readout= Growth Percent (10 μM); system= T-47D; entry= O=C1c2ccccc2C(=O)c2c1cc(N1CCCC1)c1nsnc21 ; returns value.
78.19

Okay, and Cc1ccc(Nc2cc3c(c4nsnc24)C(=O)c2ccccc2C3=O)cc1 ?
64.48

Another: CC(C)Sc1cc2c(c3nsnc13)C(=O)c1ccccc1C2=O
−24.37

Input CN(C)CCNc1cc2c(c3nsnc13)C(=O)c1ccccc1C2=O
12.90

====

System: HOP-62
Assay: NCI one-dose screening, non-small cell lung cancer HOP-62
Format: cell-based, human
Details: 10 μM
Please use true (1) for Growth Percent HOP-62 under 90% and false (0) for everything else, ties included.

Answered examples (8):
> print(dat)
                                   compound  qualitative.label
1  CSc1ccc(Sc2cc3c(c4nsnc24)C(=O)c2ccccc2C3=O)cc1          false (0)
2           O=C1c2ccccc2C(=O)c2c1ccc1nsnc21          false (0)
3  O=C1c2ccccc2C(=O)c2c1cc(N1CCSCC1)c1nsnc21           true (1)
4  Cc1ccccc1Nc1cc2c(c3nsnc13)C(=O)c1ccccc1C2=O           true (1)
5  O=C1c2ccccc2C(=O)c2c1cc(Sc1ccc(Cl)cc1)c1nsnc21          false (0)
6  O=C1c2ccccc2C(=O)c2c1cc(N1CCOCC1)c1nsnc21           true (1)
7  O=C1c2ccccc2C(=O)c2c1cc(Sc1ccc(F)cc1F)c1nsnc21           true (1)
8  O=C1c2ccccc2C(=O)c2c1cc(SCc1ccccc1)c1nsnc21          false (0)

Query compound follows.
State whether 90% exceeds Growth Percent HOP-62 recorded for O=C1c2ccccc2C(=O)c2c1cc(Sc1ccccn1)c1nsnc21 .
true (1)

====

Tested on: MDA-MB-231/ATCC
Assay: NCI one-dose screening, breast cancer MDA-MB-231/ATCC
Assay type: cell-based, human
Conditions: MDA-MB-231/ATCC
The entries below are paired with their reported Growth Percent (10 μM).
In your response, put the unit directly after the numeric value.

Some solved cases for reference:
> print(dat)
                                   molecule         reported.metric  result.value
1  O=C1c2ccccc2C(=O)c2c1cc(N1CCCC1)c1nsnc21 [C7]  Growth Percent (10 μM)        95.23%
2  Cc1ccc(Nc2cc3c(c4nsnc24)C(=O)c2ccccc2C3=O)cc1 [C64]  Growth Percent (10 μM)        73.83%
3  CC(C)Sc1cc2c(c3nsnc13)C(=O)c1ccccc1C2=O [C18]  Growth Percent (10 μM)       −35.94%

Okay, now this molecule:
Returns the measured Growth Percent (10 μM) for the input molecule. Input: CN(C)CCNc1cc2c(c3nsnc13)C(=O)c1ccccc1C2=O [C8]
−2.96%

====

Tested on: A549/ATCC
Experiment: NCI one-dose screening, non-small cell lung cancer A549/ATCC
Format: cell-based, human
Conditions: 10 μM
Reported Metric: Growth Percent A549/ATCC (%)
Return type: number; implicit unit %.

Solved cases below.
> print(dat)
                                   compound  result.value
1  COc1cccc(Sc2cc3c(c4nsnc24)C(=O)c2ccccc2C3=O)c1        109.52
2  Cc1cccc(C)c1Sc1cc2c(c3nsnc13)C(=O)c1ccccc1C2=O         90.16
3  O=C1c2ccccc2C(=O)c2c1cc(Sc1ccccc1)c1nsnc21        105.68
4           O=C1c2ccccc2C(=O)c2c1ccc1nsnc21        104.19
5  CCOc1cccc(Sc2cc3c(c4nsnc24)C(=O)c2ccccc2C3=O)c1        111.48

Provide the documented Growth Percent A549/ATCC with A549/ATCC as the system for O=C1c2ccccc2C(=O)c2c1cc(SCc1ccc(Cl)cc1)c1nsnc21
100.62

# repeat for O=C1c2ccccc2C(=O)c2c1cc(N1CCOCC1)c1nsnc21
100.58
